- assay_notes: Total plasma clearance after iv dose of 5.10 mg/kg in rats
- Type: ADME, organism-based
- Parameters: dose 5.1 mg/kg, route intravenous
- run_parameters: rat, 5.1 mg/kg, read-out: Clp (converted)
readout_type: clearance (mL/min/kg)
Give bare numbers, in mL/min/kg.

Briefly, clearance measured for CCCC(=O)O.C[C@@H]1CN(C(=O)N2Cc3c(C(=O)OC(C)(C)C)ncn3-c3ccc(Cl)cc32)C[C@H](C)N1 : 25.2

---

- assay_notes: Area under curve was determined for the compound after po dose of 5.01 mg/kg in rats
- Format: ADME, organism-based
- Design: dose 5.01 mg/kg, route oral
- run_parameters: rat, in vivo
readout_type: AUC
// return the numeric value with its unit appended

Briefly, AUC measured for C[C@H]1CN(C(=O)N2Cc3c(C(=O)OC(C)(C)C)ncn3-c3ccc(Cl)cc32)C[C@H](C)N1 : 2620 ng·h/mL
